study.system: von Willebrand factor full length (Homo sapiens, UniProt P04275 SEQ:764-2813)
test.protocol: filter; 9% bound at 100 nM vWF
test.settings: tags: Calbiochem 681300; label: 5'-32P
readout.type: Kd (nM)
Your answer should be a plain number; it is taken to be in nM.

Lookup: Quote Kd reported for GGCGUGCAGTGCCTTCGGCCGTGCGGTGCCTCCGTCACGCC (mixed, 2'-OMe at 1-6 and 36-41, 3'-idT) [ARC1237] please.
Found: 41

Sourced from patent US20060264369
